Would you mind telling me the reported Trimeric HA Binding: RLU of each entry?
- measured.target: recombinant homotrimeric HA A/Netherlands/219/03 H7N7 (Influenza A virus A/Netherlands/219/03(H7N7))
- assay.comment: protein microarray, purified IgG, trimeric HA
- study.conditions: remark: other sources report otherwise
Give the value; after it, write the unit.

query: # get_value(readout='Trimeric HA Binding: RLU', item= TCN-555 (5246_L16) (antibody, V domains shown) VH: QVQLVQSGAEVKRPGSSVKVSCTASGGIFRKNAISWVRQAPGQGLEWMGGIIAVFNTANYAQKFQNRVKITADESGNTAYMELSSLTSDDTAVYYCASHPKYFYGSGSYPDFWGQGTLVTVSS VL: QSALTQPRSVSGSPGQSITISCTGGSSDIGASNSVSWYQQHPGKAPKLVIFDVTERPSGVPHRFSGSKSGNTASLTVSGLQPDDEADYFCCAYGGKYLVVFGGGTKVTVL )
result: 1330 RLU

query: // returns reported Trimeric HA Binding: RLU for input TCN-550 (5096_F06) (antibody, V domains shown) VH: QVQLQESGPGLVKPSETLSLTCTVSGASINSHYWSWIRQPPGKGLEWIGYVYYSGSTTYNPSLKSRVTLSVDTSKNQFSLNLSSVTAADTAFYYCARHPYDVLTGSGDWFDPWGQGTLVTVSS VL: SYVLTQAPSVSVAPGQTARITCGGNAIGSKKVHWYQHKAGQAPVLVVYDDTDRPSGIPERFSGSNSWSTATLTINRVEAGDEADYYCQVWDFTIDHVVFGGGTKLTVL
result: 223 RLU

query: // query Trimeric HA Binding: RLU value for entry TCN-534 (5249_B02) (antibody, V domains shown) VH: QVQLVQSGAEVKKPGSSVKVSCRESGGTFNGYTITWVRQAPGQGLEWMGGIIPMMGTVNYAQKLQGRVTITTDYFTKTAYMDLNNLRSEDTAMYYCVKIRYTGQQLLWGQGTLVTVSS VL: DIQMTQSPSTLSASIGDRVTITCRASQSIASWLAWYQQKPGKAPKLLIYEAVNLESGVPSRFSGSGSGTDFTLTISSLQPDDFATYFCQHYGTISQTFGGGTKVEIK
result: 3420 RLU
